The molecules listed here are annotated with their pIC50.
- System: HCT116
- assay-remarks: cells
- Type: cell-based
- condition-summary: read-out: Basal_Viability ATP HCT116
Structures can show the parent of a compound that is named as a salt.
Just the number, please; pIC50 means minus log10 of the concentration in mol/L.

In [3]: df
Out[3]:
                                   molecule  value_type  quantitative_result
0  Oc1c(Cl)cc(Cl)c(Cl)c1Cc1c(O)c(Cl)cc(Cl)c1Cl       pIC50                 7.51

pIC50 in this record for Oc1ccc2[nH]cc(CCCCN3CC=C(c4ccccc4)CC3)c2c1 [Roxindole hydrochloride] : 5.60

Consider CCOc1ccc2nc3cc(N)ccc3c(N)c2c1 [Acrinol] . Its measured pIC50 is 4.81

Reported pIC50 for CC(=O)Oc1ccc(C2(c3ccc(OC(C)=O)cc3)Oc3ccccc3NC2=O)cc1 [Bisoxatin diacetate] was 5.62
